// data source = patent US20260242478A1

Exercise: for every item that follows, state its recorded Anti-CD28 Fab signal (phage binding ELISA).
Target: T1, Anti-CD28 Fab (SEQ ID NOs: 696, 697)
T1 construct: In the phage ELISA the Fab was biotinylated and captured on neutravidin coated plates
T1 sequence (VH, as listed by the source, chain 1 of 2): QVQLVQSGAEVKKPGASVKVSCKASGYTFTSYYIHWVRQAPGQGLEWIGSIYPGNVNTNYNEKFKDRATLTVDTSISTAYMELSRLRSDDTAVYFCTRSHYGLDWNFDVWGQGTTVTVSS
T1 sequence (VL, as listed by the source, chain 2 of 2): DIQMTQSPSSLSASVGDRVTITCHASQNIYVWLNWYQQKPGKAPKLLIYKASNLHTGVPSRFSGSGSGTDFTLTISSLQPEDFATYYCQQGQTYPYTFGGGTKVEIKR
Test: phage ELISA; biotinylated anti-CD28 Fab on neutravidin plate, clonal phage supernatant, anti-M13 HRP
When you answer, write just the number.

Data request: Report measured Anti-CD28 Fab signal (phage binding ELISA); entry is YCDGHAVEYMAKCL (Clonal phage of the Peptide-87 library, tested as crude phage supernatant; not shown: pIII of the bacteriophage to which the peptide is fused) [Phage-611]
Data returned: 2.18

Data request: Answer with reported Anti-CD28 Fab signal (phage binding ELISA) of YCDGHSIEYRWKCL (Clonal phage of the Peptide-87 library, tested as crude phage supernatant; not shown: pIII of the bacteriophage to which the peptide is fused) [Phage-612]
Data returned: 2.18

Data request: Output Anti-CD28 Fab signal (phage binding ELISA) of YCDGHSPLYIWKCL (Clonal phage of the Peptide-87 library, tested as crude phage supernatant; not shown: pIII of the bacteriophage to which the peptide is fused) [Phage-607]
Data returned: 2.19

Data request: Please report the measured Anti-CD28 Fab signal (phage binding ELISA) for YCAGHLPEYFLKCL (Clonal phage of the Peptide-87 library, tested as crude phage supernatant; not shown: pIII of the bacteriophage to which the peptide is fused) [Phage-606]
Data returned: 2.19

Data request: State, in one line, measured Anti-CD28 Fab signal (phage binding ELISA) of YCDGHAPEYIYKCL (Clonal phage of the Peptide-87 library, tested as crude phage supernatant; not shown: pIII of the bacteriophage to which the peptide is fused) [Phage-614]
Data returned: 2.18

Data request: State its Anti-CD28 Fab signal (phage binding ELISA) for this binder: YCDGHTQEYIAKCL (Clonal phage of the Peptide-87 library, tested as crude phage supernatant; not shown: pIII of the bacteriophage to which the peptide is fused) [Phage-617]
Data returned: 2.17

Data request: Recall and state the measured Anti-CD28 Fab signal (phage binding ELISA) for YCDGHLPEYLSKCL (Clonal phage of the Peptide-87 library, tested as crude phage supernatant; not shown: pIII of the bacteriophage to which the peptide is fused) [Phage-605] .
Data returned: 2.19

Data request: Supply measured Anti-CD28 Fab signal (phage binding ELISA) of YCDGHLPEYIEKCL (Clonal phage of the Peptide-87 library, tested as crude phage supernatant; not shown: pIII of the bacteriophage to which the peptide is fused) [Phage-609] in your reply.
Data returned: 2.19
